System: EKVX NSCLC
testDetails: NCI-60 one-dose screen, 48 h
particulars: 10 µM unless noted
This is part of a sample that, as a whole, favours compounds with a hit. Of some 83,000 tested, about 20% had one in any assay. Activity calls are given as the source filed them. Rule for the calls: active = growth percent below 10; inactive = the rest.
Form entry, call: pick from class 1 for active, class 0 for inactive

Inquiry: Assay outcome for "ClC1=C(Br)C(Br)(Br)C(=C(Br)Br)C1(Br)Br" : what was it?
Reply text: class 0

Inquiry: Assay outcome for COc1ccccc1NC(=O)C1CC(c2ccc(F)cc2)=NO1 (stereo not drawn) : what was it?
Reply text: class 0

---

System: OVCAR-5 ovarian
testDetails: NCI-60 one-dose screen, 48 h (100 = growth as untreated, 0 = no growth, -100 = all killed)
particulars: 10 µM unless noted
Compounds without any hit were thinned out: in the full panel of roughly 83,000, 20% have a hit.
Each entry below carries its recorded growth.
Give a bare numeral; the unit % is implied.

Some solved cases for reference:
O=C1c2ccc3c4c(ccc(c24)C(=O)N1CCCNCc1ccccc1F)C(=O)N(CCCNCc1ccccc1F)C3=O :: -23
COc1cc(-c2n/c(=C\c3c(O)[nH]c4ccc(Cl)cc34)cc3c2=Nc2ccccc2-3)ccc1F :: 74
CSc1nc2sc3cccc(Cl)c3n2c(=N)c1C#N :: 119

Inquiry: Looking for the measured growth of "O=C1/C=C/[C@@H](O)[C@@H]2C[C@@H](O)C[C@H]2/C=C/CCC[C@H](CCc2cccc3ccccc23)O1" , can you help?
Reply text: 24.6

Inquiry: Looking for the measured growth of "O=C(CSc1nc2ccccc2[nH]1)NCc1ccccc1" , can you help?
Reply text: 95.4

Each recorded value in this set is attributed to PubChem BioAssay (NCI).
